Taken from patent US8163771B2.

# pIC50 values compiled below
Biological target: recombinant human 11 β-HSD1 (Homo sapiens, UniProt P28845)
Sequence (P28845 whole entry): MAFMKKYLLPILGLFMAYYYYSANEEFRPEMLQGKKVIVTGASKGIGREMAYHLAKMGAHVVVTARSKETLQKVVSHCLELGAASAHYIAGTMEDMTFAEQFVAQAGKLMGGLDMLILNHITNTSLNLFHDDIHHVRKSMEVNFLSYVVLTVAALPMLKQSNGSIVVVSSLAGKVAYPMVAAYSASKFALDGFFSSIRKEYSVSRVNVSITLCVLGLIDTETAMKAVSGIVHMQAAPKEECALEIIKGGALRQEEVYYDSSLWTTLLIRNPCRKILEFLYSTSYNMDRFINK
Assay: 11 β-HSD1 SPA Assay (Scintillation Proximity Assay)
pIC50: −log10 of the molar value.

The examples below pair each entry with its known result.
CC(C)(Oc1ccc(Cl)cc1Cl)C(=O)N[C@H]1C[C@H]2CC[C@@H](C1)N2c1ccc(C(=O)NCC(F)F)cn1	> 6.70
C[C@@H](NC(=O)c1ccc(N2C3CCC2CC(NC(=O)C(C)(C)Oc2ccc(Cl)cc2Cl)C3)nc1)C(F)(F)F (stereo partly drawn)	> 6.70

Could you now look at the following compound, please?
Given the compound C[C@H](NC(=O)c1ccc(N2C3CCC2CC(NC(=O)C(C)(C)Oc2ccc(Cl)cc2OC(F)(F)F)C3)nc1)C(F)(F)F (stereo partly drawn) and test system recombinant human 11 β-HSD1 (Homo sapiens, UniProt P28845), the measured pIC50 is > 6.70
